// provenance: PubChem BioAssay

- Assay text: mitochondrial membrane potential change in A549 cells, profiling panel, cell-based, JC-1 fluorescence, basal, 24 h, 100 nL (AID 1138);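 further: A549 lung adenocarcinoma cells under basal conditions with no added stimulus; test concentration not given here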
- Condition details: higher = more signal
Measure: z-score
Answer using only a numeral; do not append any unit.

Below, each entry is followed by its recorded z-score result.
CCN1C(=O)[C@H]2[C@H]3[C@H](O)[C@H](O)CC(=NNC(=O)OCc4ccccc4)[C@H]3CC[C@H]2C1=O : -0.538
CC(=O)OC[C@H]1O[C@H](CC=NO[C@@H](C)c2cc(-c3c(C)cc(C)cc3C)no2)C=C[C@@H]1OC(C)=O : -0.921
COC(=O)[C@H](C)NC(=O)CCC1CC(OC(=O)NCc2cccc3ccccc23)CC2(CCCC(COC(=O)NCCc3ccccc3OC)O2)O1 (some centres not stated) : -0.358
O=C1C[C@@H](O)[C@@H](O)[C@@H]2[C@@H]3C(=O)N(Cc4ccccc4)C(=O)[C@@H]3CC[C@H]12 : -0.579
COc1ccc(COC(=O)NN=C2C[C@@H](O)[C@@H](O)[C@@H]3[C@@H]4C(=O)N([C@@H](C)c5ccccc5)C(=O)[C@@H]4CC[C@H]23)cc1 : -0.419

input: Dear colleague, I am looking for the recorded z-score of the following molecule: COc1ccc(O[C@H]2C=C[C@@H](c3ccccc3)O[C@@H]2COC(=O)CCC(C)=NOC[C@@H](O)COCc2ccco2)cc1
output: -0.424

input: Dear colleague, I am looking for the recorded z-score of the following molecule: CO[C@@H]1C=CCC(=O)N[C@@H](C)C(=O)OC[C@@H](NS(=O)(=O)c2ccc(C)cc2)[C@H](C)C=CCC(=O)OC[C@H]1C
output: -0.198
